The origin of these recorded values is PubChem BioAssay AID743356.

- assay: A549 cell cytotoxicity, dose response, cytotoxicity control, luminescence, dry powder, set 10 (AID 743356)
- run conditions: CellTiter-Glo ATP luminescence, 72 h; at 26 µM unless noted
Activity calls are given as the source filed them.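 Rule for the calls: active = compounds that cut cell viability with a fitted half-maximal dose no more than twice the top valid dose; inconclusive = flat curve inhibiting 30 to 70%, or a poor fit; inactive = the rest, including any rise in viability.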
property measured: max inhibition of viability %, active compounds read high

test_smiles=COc1ccc(NC(=O)N2CC[C@@H]3[C@@H](CO)N(C)c4ccc(-c5cccc(F)c5)cc4[C@@H]32)cc1 result_value="-13.8% [at 0.0235 µM] (inactive)"
test_smiles=CN1c2ccc(-c3ccc(F)cc3)cc2[C@H]2[C@H](CCN2C(=O)Nc2ccc(F)cc2)[C@H]1CO result_value="18.3% [at 0.05 µM] (inactive)"
test_smiles=CCC(=O)N1CC[C@@H]2[C@@H](CO)N(C)c3ccc(-c4ccc(F)cc4)cc3[C@@H]21 result_value="-5.87% [at 0.09 µM] (inactive)"

May I ask what max inhibition of viability %, active compounds read high has been recorded for CN1c2ccc(-c3cccc(F)c3)cc2[C@H]2[C@H](CCN2C(=O)CCCCCCN)[C@H]1CO ?
15.1% [at 0.0004 µM] (inactive)
